# Lookup of reported viability score keyed by entry
Test system: RAW-Dual (murine macrophage reporter line)
EXPERIMENTAL_DETAILS: viability score (confluency relative to resting cells, overnight) (fraction); higher = more viable, active = viable (0.7 or more)
CONDITION_DETAILS: modulator concentration 10 µM
VALUE_KIND: viability score

INSERT INTO assay_data (compound, experimental_result) VALUES
  ('NC(C(=O)O)c1ccccc1F (stereo not given)', 1),
  ('Cc1nn2c(=O)c(Cc3ccccc3)c(C)[nH]c2c1-c1ccccc1', 1),
  ('COc1cc2nc(N(C)CCCNC(=O)C3CCCO3)nc(N)c2cc1OC.Cl (stereo not given)', 0.996),
  ('COc1nc(C)cnc1NS(=O)(=O)c1cccnc1-c1ccc(-c2nnco2)cc1', 0.979),
  ('CCC1(O)C(=O)OCc2c1cc1n(c2=O)Cc2cc3cc(O)ccc3nc2-1 (stereo not given)', 0.851),
  ('CCS(=O)(=O)N1CCC2(CC1)NC(=O)N(CCOc1ccccc1)C2=O', 0.989),
  ('O=C(NC1CC(=O)N(c2ccc(F)cc2)C1)c1ccc(Cl)cc1 (stereo not given)', 0.991),
  ('O=C1CN(CCC2=CCCCC2)C2CS(=O)(=O)CC2N1c1ccc(Cl)cc1 (stereo not given)', 1.01),
  ('O=C(NC12CC3CC(CC(C3)C1)C2)N1CCOCC1', 0.967),
  ('COC(=O)C1=C(C)NC(=O)CC1c1c(F)cccc1Cl (stereo not given)', 0.995),
  ('Cc1ccc(C23CC4CC(CC(CN)(C4)C2)C3)cc1C.Cl', 0.51),
  ('Clc1ccc(CN2CCN(c3ncnc4scc(-c5cccs5)c34)CC2)cc1', 0.997),
  ('O=C(CSc1ccc2nc(-c3ccccc3)cn2n1)Nc1ccc(Br)cc1', 0.988),
  ('NCCCC[C@H](N[C@@H](CCc1ccccc1)C(=O)O)C(=O)N1CCC[C@H]1C(=O)O', 0.996),
  ('Cc1cccc(C(=O)N2N=C(c3ccccc3)CC2(O)C(F)(F)F)c1 (stereo not given)', 0.254),
  ('Nc1nc2ccc(OC(F)(F)F)cc2s1', 0.965),
  ('COc1ccc(C2NC(=O)C(O)=C2C(C)=O)cc1 (stereo not given)', 1.01),
  ('Cc1c(C(=O)NN2CCCCC2)nn(-c2ccc(Cl)cc2Cl)c1-c1ccc(Cl)cc1', 1),
  ('COc1cccc(CCNC(=O)CC2CSc3nc4c(c(=O)n32)CCCC4)c1 (stereo not given)', 0.996),
  ('COC(=O)CSc1ccc2nnc(-c3ccc(F)cc3)n2n1', 1),
  ('Cc1cnc2c(c1N1CCC(Cc3ccccc3)CC1)c(=O)n(C)c(=O)n2C', 0.999),
  ('COc1ccc(C(=O)OCCCN2C(=O)c3ccccc3C2=O)cc1', 1),
  ('O=C(NCCN1CCN(c2ccc(Cl)cc2)CC1)c1cnccn1', 0.998),
  ('CC(C)(Oc1ccc(CCNC(=O)c2ccc(-c3ccc(Cl)cc3)o2)cc1)C(=O)O', 1.01),
  ('COc1ccc(CNC2CCCc3ccccc32)cc1OC (stereo not given)', 0.508),
  ('O=S(=O)(NC1CC1)c1cnn(-c2ccccc2)c1', 0.964),
  ('Nc1nc(Cl)nc2c1ncn2[C@@H]1O[C@H](CO)[C@@H](O)[C@@H]1F', 0.482),
  ('COc1cccc(CC(=O)N2CCC(Oc3ccc4ccccc4n3)C2)c1 (stereo not given)', 1),
  ('COC(=O)C1=C(C)NC(=Cc2c(F)cccc2Cl)C1=O', 0.985),
  ('CN1CCN(C2=NC(=O)C(=Cc3ccc(Cl)cc3Cl)S2)CC1', 0.999),
  ('Cc1ccc(C(CNC(=O)Cc2cccc3ccccc23)N(C)C)cc1 (stereo not given)', 0.738),
  ('CC(C)N1CCN(c2ccc(OC[C@H]3CO[C@](Cn4cncn4)(c4ccc(Cl)cc4Cl)O3)cc2)CC1', 0.997),
  ('CCC(C)C(=O)OC1CCC=C2C=CC(C)C(CCC3CC(O)CC(=O)O3)C21 (stereo not given)', 1.05),
  ('Fc1ccc2ccccc2c1', 1.01),
  ('CN(C)CCS(=O)c1ccccc1 (stereo not given)', 1.04),
  ('CCN(CC)CC(=O)Nc1c(C)cccc1C.Cl', 0.997),
  ('CCOC(=O)Nc1ccc(NCc2ccc(F)cc2)nc1N.O=C(O)/C=C/C(=O)O', 0.977),
  ('O=C(NN=Cc1c(O)ccc2ccccc12)c1ccccc1I', 1),
  ('CC1(C)C(=O)C2CC3(O)C4=CC(=O)OC(c5ccoc5)C4(C)CCC3C(C)(C2=O)C1CC(=O)O (stereo not given)', 0.996),
  ('CNC(=O)c1cccc(-c2noc(C3CN(C(=O)NC4CCCCC4)C3)n2)c1', 1),
  ('O=C(NCC1(O)Cc2ccccc2C1)c1cccc(Br)c1', 0.677),
  ('CC(NCCC(c1ccccc1)c1ccccc1)c1ccccc1.Cl (stereo not given)', 0.204),
  ('CC(C)=CCCC(C)=CC=NNC(=S)Nc1ccc(C)cc1', 0.997),
  ('Cc1ccc(S(=O)(=O)CCSc2cccc(C(=O)Nc3ccccc3)c2)cc1', 1),
  ('Cl.Cl.O=C(O)COCCN1CCN([C@H](c2ccccc2)c2ccc(Cl)cc2)CC1', 1);

* * *

Test system: RAW-Dual (murine macrophage reporter line)
EXPERIMENTAL_DETAILS: NF-kB reporter (SEAP) activity fold change vs agonist alone; higher = enhanced NF-kB activity
CONDITION_DETAILS: modulator concentration 10 µM; agonist: CpG ODN 1826 0.5 ug/mL
Here the recorded NF-kB reporter is given for each entry.
VALUE_KIND: NF-kB reporter

INSERT INTO measurements (molecule, value_kind, experimental_result) VALUES
  ('COc1cc2ccc(=O)oc2cc1O', 'NF-kB reporter', 1.04),
  ('CCCCC(=O)N(Cc1ccc(-c2ccccc2-c2nnn[nH]2)cc1)[C@H](C(=O)O)C(C)C', 'NF-kB reporter', 1.14),
  ('CCOc1ccccc1O[C@H](c1ccccc1)[C@H]1CNCCO1.CS(=O)(=O)O', 'NF-kB reporter', 0.873),
  ('CC[C@@H]1C(=O)N(C)c2cnc(Nc3ccc(C(=O)N[C@H]4CC[C@H](N5CCN(CC6CC6)CC5)CC4)cc3OC)nc2N1C(C)C', 'NF-kB reporter', 0.553),
  ('O=C(O)CCC(=O)Nc1ccc(Br)cc1C(=O)c1ccc(Cl)cc1', 'NF-kB reporter', 0.993),
  ('COC(=O)N[C@H](C(=O)N1CCC[C@H]1c1ncc(-c2ccc(-c3ccc(-c4cnc([C@@H]5CCCN5C(=O)[C@@H](NC(=O)OC)C(C)C)[nH]4)cc3)cc2)[nH]1)C(C)C.Cl.Cl', 'NF-kB reporter', 0.437),
  ('COc1cc(C(=O)Nc2ccc(-c3ccc(N4CCC(C)CC4)nn3)cc2)cc(OC)c1OC', 'NF-kB reporter', 0.862),
  ('N[C@H](Cc1ccccc1)C(=O)O', 'NF-kB reporter', 0.958),
  ('CC(N)C12CC3CC(CC(C3)C1)C2 (centres undefined)', 'NF-kB reporter', 0.979);

* * *

Tested on: RAW-Dual (murine macrophage reporter line)
EXPERIMENTAL_DETAILS: IRF reporter (Lucia luciferase) activity fold change vs agonist alone; higher = enhanced IRF activity
CONDITION_DETAILS: modulator concentration 10 µM; agonist: 3'3'-cGAMP 10 ug/mL
VALUE_KIND: IRF reporter

INSERT INTO assay_data (molecule, target_system, experimental_result) VALUES
  ('Cc1ccc(-c2cc(NC(=O)c3ccc([N+](=O)[O-])cc3)[nH]n2)cc1', 'RAW-Dual (murine macrophage reporter line)', 0.869),
  ('O=C(NCc1cccc(Oc2ccccn2)c1)C1c2ccccc2Oc2ccccc21', 'RAW-Dual (murine macrophage reporter line)', 0.801),
  ('Cn1nc(CNC(=O)c2cccc3ccccc23)cc1C1CC1', 'RAW-Dual (murine macrophage reporter line)', 0.833),
  ('CN(C)C(CNC(=O)NCc1ccc(Cl)cc1)c1ccc2c(c1)CCO2 (stereo unspecified)', 'RAW-Dual (murine macrophage reporter line)', 0.854),
  ('Cc1nc2c(ccc3ccccc32)c(O)c1CN1CCCC1', 'RAW-Dual (murine macrophage reporter line)', 0.882),
  ('CNC(CC(=O)O)C(=O)O (stereo unspecified)', 'RAW-Dual (murine macrophage reporter line)', 0.943),
  ('O=S(=O)(Nc1nc2ccccc2n2nnnc12)c1ccc(F)cc1', 'RAW-Dual (murine macrophage reporter line)', 0.865),
  ('COc1ccc(NC(=O)CN2C(=O)c3ccccc3C2=O)c([N+](=O)[O-])c1', 'RAW-Dual (murine macrophage reporter line)', 0.963),
  ('Cc1ncc(CC(=O)N2CCC(c3ccccc3F)S(=O)(=O)CC2)s1 (stereo unspecified)', 'RAW-Dual (murine macrophage reporter line)', 0.983),
  ('O=C(CCCC(=O)Nc1ccc(Cl)c(Cl)c1)Nc1ccc(Cl)c(Cl)c1', 'RAW-Dual (murine macrophage reporter line)', 0.963),
  ('COCCOC(=O)C1=C(C)NC(=S)NC1c1ccccc1OC (stereo unspecified)', 'RAW-Dual (murine macrophage reporter line)', 0.964);

Data origin: the supplement of paper PMC10646978
